study_target: Recombinant ROCK1 (amino acids 1-477) (Homo sapiens)
Construct: Recombinant ROCK1 (amino acids 1-477); by word order, ROCK1 from Carna Biosciences
Sequence (Q13464 1-477): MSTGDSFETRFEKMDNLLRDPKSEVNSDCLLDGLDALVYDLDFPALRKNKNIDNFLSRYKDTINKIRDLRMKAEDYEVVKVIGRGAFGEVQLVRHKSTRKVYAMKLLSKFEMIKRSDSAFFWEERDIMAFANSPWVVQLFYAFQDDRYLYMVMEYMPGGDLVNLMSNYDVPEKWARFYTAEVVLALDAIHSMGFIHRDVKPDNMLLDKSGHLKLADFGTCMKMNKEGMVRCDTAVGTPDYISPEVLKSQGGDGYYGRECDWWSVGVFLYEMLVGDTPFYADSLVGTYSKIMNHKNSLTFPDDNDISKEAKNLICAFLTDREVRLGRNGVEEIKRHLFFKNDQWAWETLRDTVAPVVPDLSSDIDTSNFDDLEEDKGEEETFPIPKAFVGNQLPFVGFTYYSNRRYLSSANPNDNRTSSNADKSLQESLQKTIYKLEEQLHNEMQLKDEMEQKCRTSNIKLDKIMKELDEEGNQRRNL
assay_info: ROCK inhibition assay, LANCE Ultra TR-FRET kinase assay (ROCK1)
run_conditions: 1 μM ATP, 50 nM ULight-CREBtide substrate
pIC50: −log10 of the molar value.
endpoint_label: pIC50

Task: Consider the compound CNC(=O)c1cccc(Cn2ccc3cc(-c4cn[nH]c4C(F)F)ncc3c2=O)c1 [Compound 237] tested on Recombinant ROCK1 (amino acids 1-477) (Homo sapiens); state its pIC50.
Output: 7.00 to 7.96

Task: Check Recombinant ROCK1 (amino acids 1-477) (Homo sapiens) data and give pIC50 for Cc1nocc1-c1cc2ccn(Cc3cc(F)cc(C(=O)NCC4CCN(C)CC4)c3)c(=O)c2cn1 [Compound 265] .
Output: 7.00 to 7.96

Task: Tell me its pIC50 on Recombinant ROCK1 (amino acids 1-477) (Homo sapiens): CN1CCC(CNC(=O)c2cccc(Cn3ccc4cc(-c5ccnn5C)ccc4c3=O)c2)CC1 [Compound 171]
Output: 7.00 to 7.96

Task: Enter measured pIC50, system Recombinant ROCK1 (amino acids 1-477) (Homo sapiens), for the compound shown: C[C@H](c1cccc(C(=O)NCc2ccncc2)c1)n1cnc2cc(-c3cn[nH]c3C(F)(F)F)ccc2c1=O [Compound 447]
Output: > 8.00

###

study_target: Recombinant ROCK1 (amino acids 1-477) (Homo sapiens)
Construct: Recombinant ROCK1 (amino acids 1-477); by word order, ROCK1 from Carna Biosciences
assay_info: ROCK inhibition assay, LANCE Ultra TR-FRET kinase assay (ROCK1)
run_conditions: 1 μM ATP, 50 nM ULight-CREBtide substrate
Consider the following molecules; for each one, report its IC50.

Task: Please report the measured IC50 for Cc1[nH]ncc1-c1ccc2c(c1)NCN([C@H](CO)c1cccc(Cl)c1)C2=O tested on Recombinant ROCK1 (amino acids 1-477) (Homo sapiens).
Output: > 501 nM

Task: Give Recombinant ROCK1 (amino acids 1-477) (Homo sapiens) IC50 for the following molecule: CNC(=O)c1cc(Cn2ccc3cc(-c4cn[nH]c4C(F)(F)F)ccc3c2=O)ccc1F
Output: 101 to 500 nM

Task: Jot down IC50 (Recombinant ROCK1 (amino acids 1-477) (Homo sapiens)) of CC(=O)Nc1cc(F)cc(Cn2ccc3cc(-c4ccoc4C)ccc3c2=O)c1 .
Output: > 501 nM

Task: Name the value of IC50 reported for O=C(NCC1COC1)c1cc(F)cc(Cn2ccc3cc(-c4c[nH]nc4C(F)F)ccc3c2=O)c1 when tested on Recombinant ROCK1 (amino acids 1-477) (Homo sapiens).
Output: 11 to 100 nM

Task: Name the value of IC50 reported for CN1CCC(NC(=O)c2cccc(Cn3ccc4cc(-c5ccnn5C)ccc4c3=O)c2)CC1 when tested on Recombinant ROCK1 (amino acids 1-477) (Homo sapiens).
Output: < 10 nM

Task: Provide the reported IC50 (system: Recombinant ROCK1 (amino acids 1-477) (Homo sapiens)) for O=C(N[C@H]1CC[C@@H](O)CC1)c1cc(F)cc(Cn2ccc3cc(-c4c[nH]nc4Cl)ccc3c2=O)c1
Output: 11 to 100 nM

Task: Give IC50 for this entry on Recombinant ROCK1 (amino acids 1-477) (Homo sapiens): Cn1nccc1-c1ccc2c(=O)n(Cc3cc(F)cc(C(=O)NCc4ccc(F)nc4)c3)ccc2c1
Output: 11 to 100 nM

Task: Give IC50; test system Recombinant ROCK1 (amino acids 1-477) (Homo sapiens); molecule COc1cccc(Cn2ccc3cc(-c4ccnn4C)ccc3c2=O)c1
Output: 11 to 100 nM

Task: Name the recorded IC50 of [2H]C([2H])([2H])NC(=O)c1cc(F)cc([C@@H](C)n2cnc3cc(-c4cn[nH]c4C(F)(F)F)ccc3c2=O)c1 , assay system Recombinant ROCK1 (amino acids 1-477) (Homo sapiens).
Output: 11 to 100 nM

Task: Please indicate recorded IC50 of CNC(=O)c1cc(F)cc(Cn2cc(Cl)c3cc(-c4conc4C)ccc3c2=O)c1 measured with Recombinant ROCK1 (amino acids 1-477) (Homo sapiens).
Output: 11 to 100 nM

Task: Param request: IC50 | system Recombinant ROCK1 (amino acids 1-477) (Homo sapiens) | item CNC(=O)c1cccc(Cn2cc(CCN(C)C)c3cc(-c4cn[nH]c4Cl)ccc3c2=O)c1
Output: 11 to 100 nM

Task: Tell me IC50 of Cc1nocc1-c1ccc2c(=O)n(Cc3cccc(C(=O)NCC4CCN(C)CC4)c3)cnc2c1 when tested on Recombinant ROCK1 (amino acids 1-477) (Homo sapiens).
Output: < 10 nM

Task: Print Recombinant ROCK1 (amino acids 1-477) (Homo sapiens) IC50 for C[C@H](c1cccc(C(=O)NCC2COC2)c1)n1cnc2cc(-c3ccnn3C)ccc2c1=O .
Output: 11 to 100 nM

Task: Report value: IC50, system: Recombinant ROCK1 (amino acids 1-477) (Homo sapiens), molecule: Cn1ccc(NC(=O)c2cccc(Cn3ccc4cc(-c5ccnc(N)c5)ccc4c3=O)c2)n1
Output: 11 to 100 nM

Task: Name the recorded IC50 of Nc1cc(-c2ccc3c(=O)n(Cc4cccc(C(=O)Nc5nc6c(s5)CNCC6)c4)ccc3c2)ccn1 , assay system Recombinant ROCK1 (amino acids 1-477) (Homo sapiens).
Output: < 10 nM

Task: Lab note: record IC50 of O=C(NCC1CCN(CC(F)(F)F)CC1)c1cccc(Cn2ccc3cc(N4CCOCC4)ccc3c2=O)c1 tested on Recombinant ROCK1 (amino acids 1-477) (Homo sapiens).
Output: 101 to 500 nM

Task: // output IC50; input CNC(=O)c1cccc(Cn2cc(CCO)c3cc(-c4ccnc(N)c4)ccc3c2=O)c1 ; system Recombinant ROCK1 (amino acids 1-477) (Homo sapiens)
Output: < 10 nM

Task: Enter recorded IC50 with Recombinant ROCK1 (amino acids 1-477) (Homo sapiens) for CNC(=O)c1cc(F)cc([C@@H](C)n2cnc3cc(-c4cn[nH]c4C(F)(F)F)ccc3c2=O)c1 here.
Output: 11 to 100 nM

Task: Give IC50 for C[C@H](c1cccc(C(=O)N[C@H]2C[C@@H](O)C2)c1)n1cnc2cc(-c3ccnn3C)ccc2c1=O tested on Recombinant ROCK1 (amino acids 1-477) (Homo sapiens).
Output: 11 to 100 nM

Task: # return IC50 for Cc1n[nH]cc1-c1cc2ccn(Cc3cc(F)cc(C(=O)NC4CCOCC4)c3)c(=O)c2cn1 , test system: Recombinant ROCK1 (amino acids 1-477) (Homo sapiens)
Output: 11 to 100 nM

Task: // output IC50; input Cc1nocc1-c1ccc2c(=O)n(Cc3cccc(C(=O)Nc4ccc5c(c4)COCC5)c3)ccc2c1 ; system Recombinant ROCK1 (amino acids 1-477) (Homo sapiens)
Output: 11 to 100 nM

Task: Would you please give the reported IC50 of O=C(NCCO)c1cc(F)cc(Cn2ccc3cc(-c4c[nH]nc4Cl)ccc3c2=O)c1 with Recombinant ROCK1 (amino acids 1-477) (Homo sapiens)?
Output: 101 to 500 nM

Task: Would you please give the reported IC50 of Cc1n[nH]cc1-c1ccc2c(=O)n(Cc3cccc(C(=O)NCc4cccc(NS(C)(=O)=O)c4)c3)ccc2c1 with Recombinant ROCK1 (amino acids 1-477) (Homo sapiens)?
Output: > 501 nM

Task: Report its IC50 with Recombinant ROCK1 (amino acids 1-477) (Homo sapiens) as the test system: O=c1c2ccc(-c3c[nH]nc3Cl)cc2ccn1Cc1cccc(O)c1
Output: < 10 nM

Task: Output reported IC50 of the molecule Cn1nccc1-c1cc2ccn(Cc3cc(F)cc(C(=O)NCC4CCOCC4)c3)c(=O)c2cn1 on Recombinant ROCK1 (amino acids 1-477) (Homo sapiens).
Output: 11 to 100 nM

Task: Fill in: IC50 on Recombinant ROCK1 (amino acids 1-477) (Homo sapiens), entry CNC(=O)c1cccc(Cn2ccc3cc(-c4ccncc4)ccc3c2=O)c1
Output: 101 to 500 nM

Task: Name the recorded IC50 of CNC(=O)c1cccc(Cn2ccc3cc(-c4conc4C)ccc3c2=O)n1 , assay system Recombinant ROCK1 (amino acids 1-477) (Homo sapiens).
Output: > 501 nM

Task: Would you please give the reported IC50 of Cc1nocc1-c1ccc2c(=O)n(Cc3cccc(C(=O)Nc4ccc5c(c4)CCNC5)c3)ccc2c1 with Recombinant ROCK1 (amino acids 1-477) (Homo sapiens)?
Output: < 10 nM

Task: Check Recombinant ROCK1 (amino acids 1-477) (Homo sapiens) data and give IC50 for Cc1nocc1-c1ccc2c(=O)n(Cc3cccc(C(=O)N[C@H]4C[C@H](O)C4)c3)ccc2c1 .
Output: 101 to 500 nM

Task: State IC50 (Recombinant ROCK1 (amino acids 1-477) (Homo sapiens)) of C[C@H](c1cccc(C(=O)Nc2ccc(F)cc2)c1)n1cnc2cc(-c3cn[nH]c3Br)ccc2c1=O .
Output: 11 to 100 nM

Task: # return IC50 for CNC(=O)c1cccc(Cn2cnc3cc(-c4cnnn4C)ccc3c2=O)c1 , test system: Recombinant ROCK1 (amino acids 1-477) (Homo sapiens)
Output: > 501 nM
